molecular target: Dnmt3a-CD (UniProt O88508 608-908); test: competition (inhibition of methylation); 300 nM MGMT-ds1-f substrate, 2 uM enzyme, 25 uM AdoMet; BLI: 20 mM HEPES-NaOH pH 7.5, 100 mM KCl, 1 mM EDTA, 0.2 mM DTT, 100 uM AdoHcy, 5% glycerol, 0.02% Tween-20, 0.5 mg/mL BSA, 25 C; inhibition: buffer A (20 mM HEPES-NaOH pH 7.5, 100 mM KCl, 1 mM EDTA, 1 mM DTT) with 25 uM AdoMet, 37 C; FP: buffer A; details: protein: recombinant; tags: N-terminal 6xHis; chain copies: 2
Sequence (O88508 608-908): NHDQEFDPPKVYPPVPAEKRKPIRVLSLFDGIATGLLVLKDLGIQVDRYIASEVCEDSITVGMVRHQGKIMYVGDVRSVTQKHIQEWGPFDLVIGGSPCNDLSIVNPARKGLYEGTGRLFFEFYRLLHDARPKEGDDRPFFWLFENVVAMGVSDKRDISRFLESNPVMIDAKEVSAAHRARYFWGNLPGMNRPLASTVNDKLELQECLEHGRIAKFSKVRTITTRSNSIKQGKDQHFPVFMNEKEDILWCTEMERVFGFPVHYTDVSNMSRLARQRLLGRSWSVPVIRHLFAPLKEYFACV
measuredProperty: IC50

{"binder": "CTGAATACTACTTCCTACCCCTTACCTGAT (ssDNA) [non-specific control (no CpG)]", "dataValue": "2.4 µM"}

// provenance: paper PMC11843895
